Attribution: ChEMBL document CHEMBL2218924

Molecular target: MAP kinase-activated protein kinase 3 (Homo sapiens)
Conditions: at 10 µM
Threshold rule: residual activity greater than or equal to 90% is class 1; below that, class 0.

Please review the entries below; each comes with its answer.
>>> category_label("CN([C@@H](Cc1ccc(OS(=O)(=O)c2cccc3cnccc23)cc1)C(=O)N1CCN(c2ccccc2)CC1)S(=O)(=O)c1cccc2cnccc12")
"class 0"
>>> category_label("Nc1n[nH]c2nc3ccccc3nc12")
"class 1"
>>> category_label("Fc1ccc(-c2nc3n(c2-c2ccncc2)CCS3)cc1")
"class 1"

API: above_or_equal(metric=residual activity, cutoff=90%) for item `O=C1NC(=O)c2c1c1c3ccccc3[nH]c1n1cncc21`
class 0

Threshold query (residual activity >= 90%) on `COc1cc2nccc(Oc3ccc(NC(=S)NC(=O)c4ccccc4C)cc3)c2cc1OC`
class 0

Confirm if residual activity reported for the compound `COc1cc2ncnc(Nc3cccc(Cl)c3)c2cc1OC` is 90% or above.
class 0

Please indicate if the recorded residual activity for `COc1ccc2c(c1)c(C1=C(c3c[nH]c4ccccc34)C(=O)NC1=O)cn2CCCN(C)C` meets or exceeds 90%.
class 1

Test whether the compound `O=c1cc(N2CCOCC2)oc2c1ccc1ccccc12` records residual activity of 90% or higher.
class 1

Does residual activity meet or surpass 90% for `CCCCc1c(-c2ccc(OC)cc2)[nH]c2nccnc12` ?
class 1
